# key: entry, value: melting point

O=C(O)C1(c2cccc(F)c2)CCCCC1    135 to 137 °C
Cc1c(C=O)cc(C#N)n1C    85 to 97 °C
Cc1cc(C#N)ccc1NC1CCC(O)CC1 (centres undefined)    119 to 121 °C
CC(=O)c1c[nH]c2cc(Cl)ccc12    229 to 231 °C
O=C(O)c1ccccc1N1CCCC1=O    197 to 199 °C
O=C(Nc1nccs1)C1CCNCC1    196 to 198 °C
Cc1nnc(-c2cccc(CN)c2)[nH]1    199 to 201 °C
Cc1nnc(S)n1Cc1ccccc1    164 to 166 °C

stdin: Look up melting point: COc1cccc(CNC(=O)n2ccnc2)c1
stdout: 98 to 100 °C

stdin: Follow-up entry: N#CCC(=O)Nc1ccccc1Cl
stdout: 124 to 126 °C

stdin: Follow-up entry: O=C(O)C1CC1C1CCCCC1 (centres undefined)
stdout: 52 to 54 °C
